Tested on: HUVEC cells (human umbilical venous endothelial primary cells)
Test: MTT cytotoxicity assay
quantity: IC50

Would you mind telling me what IC50 value was observed for O=C(O)CCCC(=O)OC(Cn1cncn1)(Cn1cncn1)c1ccc(F)cc1F ?
> 100 µM

====

Assay: MTT cytotoxicity assay
Conditions: human, Hs27 cells (human foreskin fibroblast cell line)
quantity: IC50 at 72 h

Requested field: IC50 at 72 h. Item: OC(Cn1cncn1)(Cn1cncn1)c1ccc(F)cc1F
> 100 µM
